All values here come from ChEMBL document CHEMBL1681706.

Molecular target: UniProt P41597
Sequence (P41597 whole entry): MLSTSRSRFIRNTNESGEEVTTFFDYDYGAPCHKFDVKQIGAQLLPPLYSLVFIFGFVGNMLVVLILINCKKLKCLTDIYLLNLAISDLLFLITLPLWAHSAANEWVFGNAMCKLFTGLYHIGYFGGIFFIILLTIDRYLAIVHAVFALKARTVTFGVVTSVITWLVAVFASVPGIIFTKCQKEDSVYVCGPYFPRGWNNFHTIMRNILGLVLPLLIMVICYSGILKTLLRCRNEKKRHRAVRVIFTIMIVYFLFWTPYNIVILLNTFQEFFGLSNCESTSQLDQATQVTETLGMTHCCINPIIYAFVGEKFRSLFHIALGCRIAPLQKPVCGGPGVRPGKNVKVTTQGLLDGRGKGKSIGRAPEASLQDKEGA
Test: Displacement of [125I]MCP1 from human CCR2 preincubated 30 mins by human whole cell binding assay
MEASURE NAME: IC50 (nM)

P. CC(C)[C@]1(C(=O)N2C[C@@H]3C[C@H]2CN3C(=O)c2ccccc2)CC[C@@H](NC2CCOCC2F)C1 (stereo partly specified)
Q. CC(C)[C@]1(C(=O)N2C[C@@H]3C[C@H]2CN3C(=O)C2CCC2)CC[C@@H](NC2CCOCC2F)C1 (stereo partly specified)
R. CC(C)[C@]1(C(=O)N2C[C@@H]3C[C@H]2CN3C(=O)C2CC2)CC[C@@H](NC2CCOCC2)C1
S. CC(C)COC(=O)N1C[C@@H]2C[C@H]1CN2C(=O)[C@@]1(C(C)C)CC[C@@H](NC2CCOCC2F)C1 (stereo partly specified)
Data request: Could you please sort these 4 entries by IC50 from high to low? Form entry: labels listed in requested order.
Data returned: R, Q, P, S
(R: 130 nM, Q: 38.4 nM, P: 17.5 nM, S: 4.3 nM)

1. CO[C@@H]1COCC[C@@H]1N[C@@H]1CC[C@@](C(=O)N2C[C@@H]3C[C@H]2CN3C(=O)C2CCCC2)(C(C)C)C1
2. CC(OC(=O)N1C[C@@H]2C[C@H]1CN2C(=O)[C@@]1(C(C)C)CC[C@@H](NC2CCOCC2)C1)C(F)(F)F (stereo partly specified)
Data request: // task: argmin of IC50 over [ 1 , 2 ] In your reply, give the label of the chosen option.
Data returned: 2
(2: 3.5 nM, 1: 11.1 nM)
